Attribution: patent US10233173B2

# Target under test: human GluN1/GluN2B NMDA receptors (Homo sapiens, UniProt Q05586+Q13224)
# Sequence (Q13224 27-1484, other chains not shown): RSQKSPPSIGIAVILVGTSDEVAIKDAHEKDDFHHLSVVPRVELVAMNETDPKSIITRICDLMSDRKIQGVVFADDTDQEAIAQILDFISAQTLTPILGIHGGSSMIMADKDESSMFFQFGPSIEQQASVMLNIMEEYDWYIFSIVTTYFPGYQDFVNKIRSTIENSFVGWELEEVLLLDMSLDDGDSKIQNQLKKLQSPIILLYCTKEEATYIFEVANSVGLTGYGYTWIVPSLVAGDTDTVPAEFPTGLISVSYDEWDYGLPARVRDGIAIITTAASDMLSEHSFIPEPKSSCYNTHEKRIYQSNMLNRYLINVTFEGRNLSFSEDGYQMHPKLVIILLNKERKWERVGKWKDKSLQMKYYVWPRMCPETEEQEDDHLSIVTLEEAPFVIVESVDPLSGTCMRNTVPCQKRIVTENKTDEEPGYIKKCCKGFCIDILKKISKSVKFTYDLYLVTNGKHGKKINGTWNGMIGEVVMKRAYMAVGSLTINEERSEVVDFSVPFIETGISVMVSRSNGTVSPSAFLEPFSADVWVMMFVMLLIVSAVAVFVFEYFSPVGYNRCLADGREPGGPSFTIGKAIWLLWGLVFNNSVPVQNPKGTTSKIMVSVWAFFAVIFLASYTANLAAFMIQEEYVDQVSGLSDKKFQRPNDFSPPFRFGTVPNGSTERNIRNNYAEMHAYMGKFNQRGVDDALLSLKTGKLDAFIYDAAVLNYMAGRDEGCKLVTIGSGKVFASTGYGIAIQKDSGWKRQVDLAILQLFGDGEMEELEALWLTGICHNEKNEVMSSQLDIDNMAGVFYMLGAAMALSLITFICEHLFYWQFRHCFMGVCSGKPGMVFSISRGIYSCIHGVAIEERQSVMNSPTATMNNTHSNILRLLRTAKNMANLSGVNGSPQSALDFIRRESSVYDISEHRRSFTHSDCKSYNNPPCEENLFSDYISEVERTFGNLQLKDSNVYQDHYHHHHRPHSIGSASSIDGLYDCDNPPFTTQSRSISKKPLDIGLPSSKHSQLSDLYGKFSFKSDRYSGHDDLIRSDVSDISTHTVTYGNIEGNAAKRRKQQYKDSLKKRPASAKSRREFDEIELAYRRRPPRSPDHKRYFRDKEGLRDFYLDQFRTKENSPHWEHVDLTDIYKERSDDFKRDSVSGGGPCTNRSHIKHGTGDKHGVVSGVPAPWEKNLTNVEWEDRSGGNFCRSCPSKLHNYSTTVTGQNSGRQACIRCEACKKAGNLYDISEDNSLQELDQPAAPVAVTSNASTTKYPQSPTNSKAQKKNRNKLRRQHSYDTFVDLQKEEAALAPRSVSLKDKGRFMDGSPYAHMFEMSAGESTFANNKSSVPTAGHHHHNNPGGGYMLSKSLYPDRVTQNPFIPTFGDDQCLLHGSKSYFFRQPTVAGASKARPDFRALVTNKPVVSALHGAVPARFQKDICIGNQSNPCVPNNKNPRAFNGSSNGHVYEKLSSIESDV
# Test: Cell-based calcium flux (FLIPR) assay on cloned human NR1/NR2B ion channels expressed in mammalian cells
# Condition label: standard assay; glutamate at ~EC80; FLIPR calcium flux
Mark YES only for IC50 values smaller than 0.1 µM; exact matches and larger values are NO.

Answer whether the compound Fc1ccc(-n2cc(COc3ncccn3)nn2)cc1F has IC50 strictly less than 0.1 µM
NO

Please determine if COc1ccnc(OCc2cn(-c3ccc(F)c(OC(F)F)c3)nn2)n1 is below 0.1 µM in terms of IC50.
YES

Lab log: compare recorded IC50 with 0.1 µM; is it strictly lower for Cc1cc(-n2cc(COc3nccc(N)n3)nn2)ccc1F ?
NO

Report whether reported IC50 is lower than 0.1 µM (strictly) for CC(F)(F)c1cc(-n2cc(COc3nccc(N4CCCCC4)n3)nn2)ccc1F
NO

Is 0.1 µM strictly greater than the compound's reported IC50? compound: CNc1nc(OCc2cn(-c3ccc(Cl)c(C(C)(F)F)c3)nn2)ncc1F
YES

* * *

# Target under test: human GluN1/GluN2B NMDA receptors (Homo sapiens, UniProt Q05586+Q13224)
# Test: Cell-based calcium flux (FLIPR) assay on cloned human NR1/NR2B ion channels expressed in mammalian cells
# Condition label: standard assay; human GluN1/GluN2B, calcium flux (FLIPR), glutamate ~EC80
Catalogue of compounds with associated IC50
Respond with the bare value in µM.

What IC50 appears in the records for this compound with human GluN1/GluN2B NMDA receptors (Homo sapiens, UniProt Q05586+Q13224)? Cc1cnc(NCc2cn(-c3ccc(F)c(C(F)F)c3)nn2)nc1C
0.012

State its IC50 on human GluN1/GluN2B NMDA receptors (Homo sapiens, UniProt Q05586+Q13224): COc1cccnc1OCc1cn(-c2ccc(Cl)c(OC(F)F)c2)nn1
0.114

# returns recorded IC50 (system: human GluN1/GluN2B NMDA receptors (Homo sapiens, UniProt Q05586+Q13224)) for Cc1cnc(OCc2nnn(-c3cccc(C(F)F)c3)c2C)nc1
0.952

Which IC50 is reported with human GluN1/GluN2B NMDA receptors (Homo sapiens, UniProt Q05586+Q13224) for this entry: COc1ccnc(OCc2cn(-c3ccc(Cl)c(OC(F)F)c3)nn2)n1 ?
0.011

So what IC50 did FCCCc1cnc(OCc2cn(-c3ccc(Cl)c(OC(F)F)c3)nn2)nc1 get with human GluN1/GluN2B NMDA receptors (Homo sapiens, UniProt Q05586+Q13224)?
0.024

***
Form field - read-out: IC50; system: human GluN1/GluN2B NMDA receptors (Homo sapiens, UniProt Q05586+Q13224); submitted item: CC(O)c1cnc(OCc2cn(-c3ccc(F)c(C(F)F)c3)nn2)nc1 (racemic)
0.018

Checklist item: IC50 tested on human GluN1/GluN2B NMDA receptors (Homo sapiens, UniProt Q05586+Q13224), entry FC1(F)Oc2ccc(-n3cc(COc4ncccn4)nn3)cc2O1 , value?
0.238

Please provide the recorded IC50 for FC(F)(F)Oc1ccc(-n2cc(COc3ncc(Cl)cn3)nn2)cc1 , tested on human GluN1/GluN2B NMDA receptors (Homo sapiens, UniProt Q05586+Q13224).
9.05

Report IC50 for FC(F)c1cc(-n2cc(COc3ccccn3)nn2)ccc1Cl tested on human GluN1/GluN2B NMDA receptors (Homo sapiens, UniProt Q05586+Q13224).
1.2

* * *

# Target under test: human GluN1/GluN2B NMDA receptors (Homo sapiens, UniProt Q05586+Q13224)
# Test: Cell-based calcium flux (FLIPR) assay on cloned human NR1/NR2B ion channels expressed in mammalian cells
# Condition label: standard assay; glutamate at ~EC80; FLIPR calcium flux
# Procedure: Effects of Test Articles on Cloned Human NR1/NR2B Ion Channels Expressed in Mammalian Cells NMDA receptors are ion channels that are highly permeable to Ca^2+ ions, rendering it possible to monitor NMDA receptor function using cell-based calcium flux assay. […] The time course of the changes in intracellular calcium is measured using a fluorescent dye and a FLIPR (Fluorometric Imaging Plate Reader) device. […]
Entries and their measured IC50 follow.
Number only, in µM; omit the unit.

Which measured IC50 value corresponds to Cc1cc(-n2cc(COc3ncc(F)c(C)n3)nn2)ccc1F ?
0.002

Consider the molecule Cc1c(COc2ncc(Cl)cn2)nnn1-c1cccc(C(F)F)c1 and give its measured IC50.
1.32

New cases:
Need IC50 of CCc1cnc(OCc2cn(-c3ccnc(C)c3)nn2)nc1 , thanks.
0.169

Which IC50 is reported for this molecule? CC(=O)c1cnc(OCc2cn(-c3ccc(F)c(C(C)(F)F)c3)nn2)nc1
0.011

Find the recorded IC50 belonging to Fc1ccc(-n2cc(COc3ncc(N4CCC4)cn3)nn2)cc1C(F)F and report it.
0.006

* * *

# Target under test: human GluN1/GluN2B NMDA receptors (Homo sapiens, UniProt Q05586+Q13224)
# Test: Cell-based calcium flux (FLIPR) assay on cloned human NR1/NR2B ion channels expressed in mammalian cells
# Condition label: standard assay; glutamate at ~EC80; FLIPR calcium flux
Experimental endpoint: IC50 (µM)
Number only, in µM; omit the unit.

What value of measured IC50 is listed for OCc1ccnc(OCc2cn(-c3ccc(F)c(Br)c3)nn2)n1 ?
0.041

---
What value of IC50 has been reported for the following compound? CC(F)(F)c1cc(-n2cc(COc3ncc(OC(F)F)cn3)nn2)ccc1F
0.025

// query IC50 value for entry Nc1ccnc(OCc2cn(-c3ccc(F)c(C(F)F)c3)nn2)n1
0.124

Requested read-out: IC50. Entry: CC(C)(O)c1cnc(OCc2cn(-c3ccc(F)c(C(F)(F)F)c3)nn2)nc1
0.098

* * *

# Target under test: human GluN1/GluN2B NMDA receptors (Homo sapiens, UniProt Q05586+Q13224)
# Test: Cell-based calcium flux (FLIPR) assay on cloned human NR1/NR2B ion channels expressed in mammalian cells
# Condition label: standard assay; glutamate at ~EC80; FLIPR calcium flux
Experimental endpoint: log10(IC50) (log10 of the value in µM)
Lab note - IC50 converted to log10 from values in µM.

As a guide, the following entries are already answered.
// query log10(IC50) value for entry CC(F)(F)c1cc(-n2cc(COc3ncc(N4CCC4)cn3)nn2)ccc1F
-1.47

What measured log10(IC50) goes with Cc1cc(-n2cc(COc3ncccn3)nn2)ccc1F ?
-1.14

If you can, please state the reported log10(IC50) value of CNc1nc(OCc2cn(-c3ccc(F)c(C(F)F)c3)nn2)ncc1F .
-0.91

Any idea what its log10(IC50) is? The compound is Nc1ccnc(OCc2cn(-c3ccc(F)c(OC(F)F)c3)nn2)n1
-1.28

What log10(IC50) value was documented for this compound, FCCCc1cnc(OCc2cn(-c3ccc(Cl)c(C(F)F)c3)nn2)nc1 ?
-1.96

Report log10(IC50) for COCc1cnc(OCc2cn(-c3ccc(F)c(C(F)(F)F)c3)nn2)nc1 please.
-1.15

What value of log10(IC50) has been reported for the following compound? CC(C)(O)c1cnc(OCc2cn(-c3ccc(Cl)c(C(F)F)c3)nn2)nc1
-1.17

For the compound shown here, Cc1cc(-n2cc(COc3ncc(OCCF)cn3)nn2)ccc1F , give the reported log10(IC50).
-2.15

Query compound follows.
For the compound shown here, CN(C)c1cnc(OCc2cn(-c3ccc(F)c(C(C)(F)F)c3)nn2)nc1 , give the reported log10(IC50).
-1.41

* * *

IC50 values for the compounds below.
# Target under test: human GluN1/GluN2B NMDA receptors (Homo sapiens, UniProt Q05586+Q13224)
# Test: Cell-based calcium flux (FLIPR) assay on cloned human NR1/NR2B ion channels expressed in mammalian cells
# Condition label: standard assay; glutamate at ~EC80; FLIPR calcium flux
Give just the number in µM; leave the unit off.

The examples below pair each entry with its known result.
Give its IC50 value. Item: Cc1ccc(OCc2cn(-c3ccc(F)c(C(C)(F)F)c3)nn2)nc1C
0.052

Name the recorded IC50 for OCc1cnc(OCc2cn(-c3ccc(F)c(Br)c3)nn2)nc1 .
0.03

Entry CC(O)c1cnc(OCc2cn(-c3ccc(F)c(C(C)(F)F)c3)nn2)nc1 (racemic) has what IC50?
0.014

# IC50 lookup, item Fc1ccc(-n2cc(COc3ncc(N4CC(F)C4)cn3)nn2)cc1OC(F)F
0.008

Continuing:
Which IC50 value is on record for Cc1cnc(OCc2cn(-c3ccc(Cl)c(C(F)F)c3)nn2)nc1N ?
0.004

* * *

# Target under test: human GluN1/GluN2B NMDA receptors (Homo sapiens, UniProt Q05586+Q13224)
# Test: Cell-based calcium flux (FLIPR) assay on cloned human NR1/NR2B ion channels expressed in mammalian cells
# Condition label: standard assay; human GluN1/GluN2B, calcium flux (FLIPR), glutamate ~EC80
The class of a record is decided solely by its measured IC50; consult lower level = under 0.008 µM, middle level = from 0.008 µM up to 0.07 µM, upper level = 0.07 µM and over

Could you tell me which band FC(F)c1cc(-n2cc(COc3ccncn3)nn2)ccc1Cl belongs to?
upper level

Continuing:
Into which category would you place CN(C)c1ccnc(OCc2cn(-c3cccc(C(F)F)c3)nn2)n1 ?
middle level

Consider Fc1cnc(OCc2cn(-c3ccc(F)c(Br)c3)nn2)nc1 . To which IC50 class does it belong?
middle level

// return the class label for Cc1ccnc(OCc2cn(-c3ccc(Cl)c(C(F)F)c3)nn2)n1
lower level

Input CC(F)(F)c1cccc(-n2cc(COc3ncc(CO)cn3)nn2)c1 ; output its category
middle level

Which IC50 category applies to CCc1cnc(OCc2cn(-c3cccc(C(F)(F)F)c3)nn2)nc1 here?
lower level

Which category does the recorded IC50 put CC(Oc1ncccn1)c1cn(-c2ccc(Cl)c(OC(F)F)c2)nn1 (single isomer, unassigned) [Example 54] in?
upper level
